Assay: Experiment III: acute toxicity, oral, ddY male mice (Van der Waerden's Method)
Conditions: mouse, in vivo, ddY-strain male mice
Procedure: Test compounds were administered orally to ddY male mice or SD-strain male rats. Seventy-two hours after the administration, 50% lethal dose of the test compounds were estimated in accordance with Van der Waerden's Method.
readout_label: LD50 at 72 h (mg/kg)
Lab book: enter the figure in mg/kg, no units written.

Lookup: Record request: LD50 at 72 h value, item CCOC(=O)CC(C[N+](C)(C)C)OC(=O)c1cccnc1 (centres unmarked)
Found: 5900

----------
Experiment: Experiment III: acute toxicity, oral, SD-strain male rats (Van der Waerden's Method)
Details: rat, in vivo
Description: Test compounds were administered orally to ddY male mice or SD-strain male rats. Seventy-two hours after the administration, 50% lethal dose of the test compounds were estimated in accordance with Van der Waerden's Method.
readout_label: LD50 at 72 h (mg/kg)
Lab book: enter the figure in mg/kg, no units written.

Lookup: Record request: LD50 at 72 h value, item CCOC(=O)CC(C[N+](C)(C)C)OC(=O)c1cccnc1 (centres unmarked) [B]
Found: 6900
